tested.system: adenosine/ATP-binding single-stranded DNA aptamer (minimal ATP aptamer DH25.42, SEQ ID NO:46)
protocol.description: Kd for adenosine by analytical ultrafiltration
condition.set: room temperature, column buffer (300 mM NaCl, 5 mM MgCl2, 20 mM Tris pH 7.6), 5.49 nM [3H]adenosine, average of two estimates, read-out: Kd for adenosine in solution
quantity: Kd (µM)
Please state the figure in µM; there is no need to write the unit.

Inquiry: Return reported Kd; argument: "Nc1ncnc2c1ncn2[C@@H]1O[C@H](CO)[C@@H](O)[C@H]1O"
Reply text: 6

Recorded values, source patent US5631146A.
